Biological target: human recombinant adrenergic α2B receptor (Homo sapiens)
Construct: expressed in transfected cells; host or cells: CHO-K1
Sequence (P18089 1-450): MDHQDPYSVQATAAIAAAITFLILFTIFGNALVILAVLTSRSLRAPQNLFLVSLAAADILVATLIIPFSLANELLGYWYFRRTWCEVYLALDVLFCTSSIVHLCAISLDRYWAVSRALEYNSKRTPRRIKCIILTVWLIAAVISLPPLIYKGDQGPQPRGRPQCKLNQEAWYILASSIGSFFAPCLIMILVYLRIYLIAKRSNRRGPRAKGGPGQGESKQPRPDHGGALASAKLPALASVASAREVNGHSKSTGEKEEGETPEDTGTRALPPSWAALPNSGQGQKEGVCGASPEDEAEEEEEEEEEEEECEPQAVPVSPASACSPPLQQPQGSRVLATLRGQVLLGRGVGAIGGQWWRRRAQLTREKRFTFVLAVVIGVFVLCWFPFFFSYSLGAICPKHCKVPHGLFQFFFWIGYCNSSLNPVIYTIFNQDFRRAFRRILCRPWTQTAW
Test: Radioligand binding, adrenergic α2B ([3H]Rauwolscine)
Details: compound at 0.03 μM; [3H]Rauwolscine; repeat assays, each datapoint shown; 0.03 µM
Rule: Percentage inhibition of ligand binding, Adrenergic α2B under 10% gives F, otherwise T.

1) CN1CCc2c(c3cc(Cl)ccc3n2CC(O)c2ccncc2)C1 (single isomer, unassigned) [4a] | T
2) Cc1ccc2c(c1)c1c(n2CC(O)c2ccncc2)CCNC1 (single isomer, unassigned) [39b] | T
3) CCC1c2c(c3cc(C)ccc3n2CC(O)c2ccncc2)C2CCN1C2 (single isomer, unassigned) [36b] | F
4) Cc1ccc2c(c1)c1c(n2CC(O)c2ccncc2)CC2CCCCN2C1 (racemic) [75c] | T
5) Cc1ccc2c(c1)c1c(n2CC(O)c2cccnc2)CCNC1 (single isomer, unassigned) [9a] | T
6) Cc1ccc2c(c1)c1c(n2CCc2ccc(CO)nc2)CCN(C)C1 [compound 91] | T
7) OC(Cn1c2c(c3cc(Cl)ccc31)CNCC2)c1ccncc1 (single isomer, unassigned) [10b] | T
8) Cc1ccc2c(c1)c1c(n2CC(O)c2cccnc2)CCN(CCO)C1 (single isomer, unassigned) [21a] | F
